Tested on: Trypanosoma cruzi
Assay remarks: Antitrypanosomal activity against Trypanosoma cruzi Y epimastigotes assessed as parasite growth at 10 ug/ml after 24 hrs
Format: functional
Exercise: state measured Activity for each of the molecules provided.
// unit must come after the numeric part

Challenge: Value lookup for Activity; key = O=C(N/N=C/c1ccc([N+](=O)[O-])s1)c1ccc(O)cc1
Response given: 56.6%

Challenge: Value lookup for Activity; key = N#Cc1ccc(C(=O)N/N=C/c2ccc([N+](=O)[O-])s2)cc1
Response given: 0%

Challenge: Value lookup for Activity; key = O=C(N/N=C/c1ccc([N+](=O)[O-])o1)c1ccccc1
Response given: 0%

Challenge: Value lookup for Activity; key = O=C(N/N=C/c1ccc([N+](=O)[O-])s1)c1ccc(Cl)cc1
Response given: 0%

Challenge: Value lookup for Activity; key = O=C(N/N=C/c1ccc([N+](=O)[O-])o1)c1ccc(Cl)cc1
Response given: 0%

Challenge: Value lookup for Activity; key = NS(=O)(=O)c1ccc(C(=O)N/N=C/c2ccc([N+](=O)[O-])s2)cc1
Response given: 18.2%

Challenge: Value lookup for Activity; key = O=C(N/N=C/c1ccc([N+](=O)[O-])s1)c1ccc(C(F)(F)F)cc1
Response given: 0%

Challenge: Value lookup for Activity; key = O=C(Cn1ccnc1[N+](=O)[O-])NCc1ccccc1
Response given: 30%

Challenge: Value lookup for Activity; key = CN(C)c1ccc(C(=O)N/N=C/c2ccc([N+](=O)[O-])s2)cc1
Response given: 43.6%

Challenge: Value lookup for Activity; key = O=C(N/N=C/c1ccc([N+](=O)[O-])s1)c1ccccc1
Response given: 57.3%

Challenge: Value lookup for Activity; key = COc1ccc(C(=O)N/N=C/c2ccc([N+](=O)[O-])s2)cc1
Response given: 0%
